The reported numbers originate from paper PMC12529666.

- system-under-test: AGO2 L192P (Homo sapiens, UniProt Q9UKV8 1-859, L192P;S387D;S824A;S828D;S831D;S834A)
- Sequence (Q9UKV8 whole entry L192P/S387D/S824A/S828D/S831D/S834A): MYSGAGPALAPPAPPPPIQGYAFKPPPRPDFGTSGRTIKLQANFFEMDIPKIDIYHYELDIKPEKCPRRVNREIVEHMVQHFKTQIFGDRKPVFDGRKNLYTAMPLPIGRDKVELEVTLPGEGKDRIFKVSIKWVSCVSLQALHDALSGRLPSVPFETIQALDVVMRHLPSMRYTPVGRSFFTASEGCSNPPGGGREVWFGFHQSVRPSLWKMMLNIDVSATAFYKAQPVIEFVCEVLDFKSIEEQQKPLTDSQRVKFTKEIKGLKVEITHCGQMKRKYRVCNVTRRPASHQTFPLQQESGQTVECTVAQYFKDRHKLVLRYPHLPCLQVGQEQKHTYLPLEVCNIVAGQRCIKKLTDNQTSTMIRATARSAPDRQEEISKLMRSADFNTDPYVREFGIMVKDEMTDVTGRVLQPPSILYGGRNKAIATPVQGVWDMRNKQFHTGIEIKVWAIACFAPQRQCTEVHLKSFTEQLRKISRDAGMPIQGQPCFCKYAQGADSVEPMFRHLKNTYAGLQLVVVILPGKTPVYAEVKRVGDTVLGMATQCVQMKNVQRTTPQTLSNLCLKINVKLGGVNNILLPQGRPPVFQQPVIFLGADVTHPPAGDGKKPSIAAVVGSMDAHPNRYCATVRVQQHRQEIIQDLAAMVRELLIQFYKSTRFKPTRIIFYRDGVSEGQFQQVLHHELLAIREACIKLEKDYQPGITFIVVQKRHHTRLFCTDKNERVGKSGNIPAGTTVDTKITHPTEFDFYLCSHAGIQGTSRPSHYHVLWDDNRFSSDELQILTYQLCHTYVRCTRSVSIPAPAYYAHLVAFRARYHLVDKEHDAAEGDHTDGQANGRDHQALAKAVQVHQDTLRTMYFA
- assay-details: RNA Bind-n-Seq (nitrocellulose filter binding and sequencing); miR-122 guide loaded in AGO2; 60 min incubation; 30 mM Tris pH 8.0, 100 mM potassium acetate, 2 mM magnesium acetate, 0.5 mM TCEP, 0.005% NP-40, 0.01 mg/ml yeast tRNA; 3 nM AGO2-miR-122, 100 nM RNA library; 60; high values mean tight binding
- experimental-context: protein: recombinant; tags: His6 (N-terminal, pFastBac HTA)
measured-parameter: binding signal

Example binders with recorded binding signal:
ACATTCTG (ssRNA, constant regions annealed to DNA blockers; guide miR-122 5' phosphate) RNA 1: GAGUUCUACAGUCCGACGAUCCCAACACAUUCUGCACCUGGAAUUCUCGGGUGCCAA RNA 2: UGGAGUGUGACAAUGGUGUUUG DNA 1: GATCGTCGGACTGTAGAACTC DNA 2: TTGGCACCCGAGAATTCCA
0.392 fold enrichment over input
GCGCTTTA (ssRNA, constant regions annealed to DNA blockers; guide miR-122 5' phosphate) RNA 1: GAGUUCUACAGUCCGACGAUCCCAACGCGCUUUACACCUGGAAUUCUCGGGUGCCAA RNA 2: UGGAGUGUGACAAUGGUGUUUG DNA 1: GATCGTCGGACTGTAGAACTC DNA 2: TTGGCACCCGAGAATTCCA
0.493 fold enrichment over input
ATACCTTG (ssRNA, constant regions annealed to DNA blockers; guide miR-122 5' phosphate) RNA 1: GAGUUCUACAGUCCGACGAUCCCAACAUACCUUGCACCUGGAAUUCUCGGGUGCCAA RNA 2: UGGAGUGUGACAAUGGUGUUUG DNA 1: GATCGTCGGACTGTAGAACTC DNA 2: TTGGCACCCGAGAATTCCA
0.418 fold enrichment over input

// next entry
Fill blank: measured binding signal of the binder GCGCTCCG (ssRNA, constant regions annealed to DNA blockers; guide miR-122 5' phosphate) RNA 1: GAGUUCUACAGUCCGACGAUCCCAACGCGCUCCGCACCUGGAAUUCUCGGGUGCCAA RNA 2: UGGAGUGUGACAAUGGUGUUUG DNA 1: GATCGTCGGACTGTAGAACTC DNA 2: TTGGCACCCGAGAATTCCA is ____.
3.09 fold enrichment over input
